Test: Ionisation constant (pKa2)
Parameter: pKa2
I only need the number, thanks.

The value of pKa2 measured for the molecule `CC(C)(C)CN/C(=C\[N+](=O)[O-])Nc1cccnc1` turned out to be 8.86

---

Species on record: Rattus norvegicus
Experiment: Concentration required to cause 50% inhibition of spontaneous activity in rat portal vein
Type: functional
Conditions: Rattus norvegicus
The following compounds are listed with their measured IC50 values.
Report the value in nM with no unit label.

Past entries and their recorded results:
Compound	Unit Symbol	IC50
C[C@H](N/C(=N/c1ccncc1)NC#N)C(C)(C)C	nM	776
CC(C)(C)CNC(=O)Nc1cccnc1	nM	2000
CC(C)(C)C(CO)/N=C(/S)Nc1cccnc1 (configuration not stated)	nM	3160
C[C@@H](N/C(=N/c1ccncc1)NC#N)C(C)(C)C	nM	33.9
CC(C)(C)c1csc(Nc2cccnc2)n1	nM	1000

The value of IC50 measured for the compound `CC(C)(C)CN/C(=C\[N+](=O)[O-])Nc1cccnc1` turned out to be 1000

The value of IC50 measured for the compound CC(/N=C(/S)Nc1cccnc1)C(C)(C)C (configuration not stated) turned out to be 50.1
